Catalogue of inhibition values
Target: MAPK14 (human)
Assay: Inhibition of LPS Stimulated TNF Production by U937 Cells
Details: concentration not given here
Numeric only. Scale: %

>>> print(df.to_string())
                                smiles_text  measured_target  measured_property  unit_symbol  reported_measurement
0  O=S(=O)(NCc1[nH]nc(-c2ccc(F)cc2)c1-c1ccncc1)c1ccccc1C(F)(F)F   MAPK14 (human)         inhibition            %                    46
1  COC(=O)[C@H](CCSC)NC(=O)Cn1nc(-c2ccc(F)cc2)c(-c2ccncc2)c1C   MAPK14 (human)         inhibition            %                    36
2  C[C@H](NS(=O)(=O)c1ccc(CNC(=O)c2ccccc2)s1)c1[nH]nc(-c2ccc(F)cc2)c1-c1ccncc1   MAPK14 (human)         inhibition            %                    83
3  O=C(N[C@H](Cc1ccccc1)c1[nH]nc(-c2ccc(F)cc2)c1-c1ccncc1)c1ccccc1C(F)(F)F   MAPK14 (human)         inhibition            %                    25

Entry under test: C[C@H](NS(=O)(=O)c1ccc(F)c(Cl)c1)c1[nH]nc(-c2ccc(F)cc2)c1-c1ccncc1 . Its inhibition was 85

Value of inhibition reported for the molecule C[C@@H](NC(=O)N(C)c1ccccc1)c1[nH]nc(-c2ccc(F)cc2)c1-c1ccncc1 is 30

###

Target: MAPK14 (human)
Assay: Inhibition of LPS Stimulated TNF Production by U937 Cells
Conditions: concentration not given here
inhibition overview
Include the unit after the number when you answer.

Solved cases (3 shown):
>>> df
                                smiles_text  reported_measurement
0  CCCCOc1ccc(S(=O)(=O)N[C@H](C)c2[nH]nc(-c3ccc(F)cc3)c2-c2ccncc2)cc1                   67%
1  O=C(NCCCc1[nH]nc(-c2ccc(F)cc2)c1-c1ccncc1)c1ccccc1C(F)(F)F                   62%
2  C[C@H](NC(=O)NCCc1ccccc1)c1[nH]nc(-c2ccc(F)cc2)c1-c1ccncc1                   36%

// next item, inhibition requested
Recorded inhibition (molecule C[C@H](NS(=O)(=O)c1ccc(-c2ccccn2)s1)c1[nH]nc(-c2ccc(F)cc2)c1-c1ccncc1 ): 92%

###

Molecular target: MAPK14 (human)
Assay: Inhibition of LPS Stimulated TNF Production by U937 Cells
Conditions: concentration not given here
Assign True whenever inhibition does not fall below 20%; assign False whenever it does.

Study these solved cases before continuing.
>>> df
                                   compound  category_label
0  O=S(=O)(NCc1[nH]nc(-c2ccc(F)cc2)c1-c1ccncc1)c1c(Cl)cccc1Cl            True
1  O=S(=O)(NCc1[nH]nc(-c2ccc(F)cc2)c1-c1ccncc1)c1ccc(-c2ccccn2)s1            True
2  Cn1cnc(S(=O)(=O)NCc2[nH]nc(-c3ccc(F)cc3)c2-c2ccncc2)c1            True
3  CCc1ccc(S(=O)(=O)N[C@@H](C)c2[nH]nc(-c3ccc(F)cc3)c2-c2ccncc2)cc1            True
4  C[C@@H](NS(=O)(=O)c1ccc(F)c(Cl)c1)c1[nH]nc(-c2ccc(F)cc2)c1-c1ccncc1            True
5  C[C@@H](NC(=O)c1ccccc1F)c1[nH]nc(-c2ccc(F)cc2)c1-c1ccncc1            True

Q: Does the reported inhibition for O=S(=O)(NCCCc1[nH]nc(-c2ccc(F)cc2)c1-c1ccncc1)c1cccc(Cl)c1Cl fall at or above the 20% mark?
Ans: False

Q: Could you tell me if the measured inhibition of O=S(=O)(c1cccc(Cl)c1Cl)N1CCC(c2[nH]nc(-c3ccc(F)cc3)c2-c2ccncc2)CC1 reaches 20% or more?
Ans: True

###

Biological target: MAPK14 (human)
Experiment: Inhibition of LPS Stimulated TNF Production by U937 Cells
Details: concentration not given here
Use 30% as the dividing line for inhibition, with the line itself on the Condition met side and lower values as Condition not met.

Field: example entries. Status: answers known.
>>> df
                                smiles_text     category_label
0  Cc1noc(C)c1C(=O)NCc1[nH]nc(-c2ccc(F)cc2)c1-c1ccncc1  Condition not met
1  N#Cc1cccc(S(=O)(=O)N2CCC(c3[nH]nc(-c4ccc(F)cc4)c3-c3ccncc3)CC2)c1  Condition not met
2  O=S(=O)(NCCc1[nH]nc(-c2ccc(F)cc2)c1-c1ccncc1)c1cc(Cl)c(Cl)s1  Condition not met
3  O=C(NCCCc1[nH]nc(-c2ccc(F)cc2)c1-c1ccncc1)Nc1cccc(F)c1      Condition met
4  COC(=O)CCCC(=O)NCc1[nH]nc(-c2ccc(F)cc2)c1-c1ccncc1  Condition not met
5  Cc1ccc(S(=O)(=O)N[C@H](C)c2[nH]nc(-c3ccc(F)cc3)c2-c2ccncc2)cc1      Condition met
6  C[C@@H](NC(=O)c1ccccc1)c1[nH]nc(-c2ccc(F)cc2)c1-c1ccncc1  Condition not met
7  C[C@H](NS(=O)(=O)c1cccc(C(F)(F)F)c1)c1[nH]nc(-c2ccc(F)cc2)c1-c1ccncc1      Condition met

Q: Please indicate if the recorded inhibition for C[C@H](NC(=O)c1cc(F)cc(F)c1)c1[nH]nc(-c2ccc(F)cc2)c1-c1ccncc1 meets or exceeds 30%.
Ans: Condition met

Q: Quick check, inhibition >= 30%? CNC(=O)CC[C@H](NC(=O)Nc1c(C)cccc1C)c1[nH]nc(-c2ccc(F)cc2)c1-c1ccncc1
Ans: Condition not met

Q: Does inhibition meet or surpass 30% for O=C(NCCc1[nH]nc(-c2ccc(F)cc2)c1-c1ccncc1)Nc1cccc(Cl)c1Cl ?
Ans: Condition met

Q: Entry C[C@H](NC(=O)c1cccc(Cl)c1Cl)c1[nH]nc(-c2ccc(F)cc2)c1-c1ccncc1 : is its inhibition no less than 30%?
Ans: Condition not met

Q: Kindly determine if inhibition recorded for CCS(=O)(=O)NCCc1[nH]nc(-c2ccc(F)cc2)c1-c1ccncc1 is above or exactly 30%.
Ans: Condition met

Q: Given the entry C[C@@H](NC(=O)Cc1cccs1)c1[nH]nc(-c2ccc(F)cc2)c1-c1ccncc1 , answer whether its inhibition meets or surpasses 30%.
Ans: Condition met

Q: Test whether the molecule C[C@H](NC(=O)c1c(F)ccc(F)c1F)c1[nH]nc(-c2ccc(F)cc2)c1-c1ccncc1 records inhibition of 30% or higher.
Ans: Condition met

Q: Given Cc1cccc(Cl)c1S(=O)(=O)N[C@H](C)c1[nH]nc(-c2ccc(F)cc2)c1-c1ccncc1 , state whether its inhibition is at least 30%.
Ans: Condition met

Q: Evaluate Cc1cccc(C)c1NC(=O)Cn1nc(-c2ccc(F)cc2)c(-c2ccncc2)c1C : inhibition at minimum 30%?
Ans: Condition not met

Q: Evaluate O=[N+]([O-])c1ccc(S(=O)(=O)NCc2[nH]nc(-c3ccc(F)cc3)c2-c2ccncc2)cc1 : inhibition at minimum 30%?
Ans: Condition not met

###

Target: MAPK14 (human)
Assay: Inhibition of MAPK14 Kinase Activity by PHAS-I Assay
Settings: concentration not given here
MEASURED_PROPERTY: inhibition (%)
Report as a plain number; the unit % is understood.

In [3]: df
Out[3]:
                                   molecule  unit_symbol  reported_measurement
0  Cc1c(-c2ccncc2)c(-c2ccc(F)cc2)nn1CC(=O)N1CCOCC1            %                    70

// inhibition (MAPK14 (human)) for COc1ccc2[nH]c3c(c2c1)CCN(C(=O)Cn1nc(-c2ccc(F)cc2)c(-c2ccncc2)c1C)C3 = 39

Observed inhibition on MAPK14 (human), entry O=C(NCCCc1[nH]nc(-c2ccc(F)cc2)c1-c1ccncc1)C1CCCC1 , equals 79

Known value: MAPK14 (human) inhibition of the molecule CC(Oc1ccccc1)C(=O)NCCCc1[nH]nc(-c2ccc(F)cc2)c1-c1ccncc1 (centres undefined) equals 83

Test item O=C(NCCc1[nH]nc(-c2ccc(F)cc2)c1-c1ccncc1)c1ccc(I)cc1 ; MAPK14 (human); reported inhibition was 58

Bench note, MAPK14 (human): entry CC(=O)OC(C)(C)C(=O)NCCc1[nH]nc(-c2ccc(F)cc2)c1-c1ccncc1 , its inhibition = 70

The molecule Cc1c(-c2ccncc2)c(-c2ccc(F)cc2)nn1CC(=O)NCC(=O)Nc1ccccc1 , tested on MAPK14 (human), showed inhibition of 86

Considering COc1ccc(CCN(CCC#N)C(=O)Cn2nc(-c3ccc(F)cc3)c(-c3ccncc3)c2C)cc1OC , its inhibition with MAPK14 (human) was recorded as 72

inhibition value, target or system MAPK14 (human), for O=S(=O)(NCCCc1[nH]nc(-c2ccc(F)cc2)c1-c1ccncc1)c1ccc(F)cc1F : 52
